biological target: human Nav1.6 (hNav1.6) (Homo sapiens, UniProt Q9UQD0); construct: expressed in transfected cells; host or cells: HEK-293 (G418 selection); assay: Modulation of late sodium current (INaL), PatchXpress electrophysiology; format: cell-based; conditions: HEK293; 1 μM compound; HEK-293 cells expressing recombinant human Nav channel; late current evoked by 300 nM ATX-II; steady-state inhibition; read-out: INaL v1.6 (1 μM, % Inhibition)
Sequence (Q9UQD0 whole entry): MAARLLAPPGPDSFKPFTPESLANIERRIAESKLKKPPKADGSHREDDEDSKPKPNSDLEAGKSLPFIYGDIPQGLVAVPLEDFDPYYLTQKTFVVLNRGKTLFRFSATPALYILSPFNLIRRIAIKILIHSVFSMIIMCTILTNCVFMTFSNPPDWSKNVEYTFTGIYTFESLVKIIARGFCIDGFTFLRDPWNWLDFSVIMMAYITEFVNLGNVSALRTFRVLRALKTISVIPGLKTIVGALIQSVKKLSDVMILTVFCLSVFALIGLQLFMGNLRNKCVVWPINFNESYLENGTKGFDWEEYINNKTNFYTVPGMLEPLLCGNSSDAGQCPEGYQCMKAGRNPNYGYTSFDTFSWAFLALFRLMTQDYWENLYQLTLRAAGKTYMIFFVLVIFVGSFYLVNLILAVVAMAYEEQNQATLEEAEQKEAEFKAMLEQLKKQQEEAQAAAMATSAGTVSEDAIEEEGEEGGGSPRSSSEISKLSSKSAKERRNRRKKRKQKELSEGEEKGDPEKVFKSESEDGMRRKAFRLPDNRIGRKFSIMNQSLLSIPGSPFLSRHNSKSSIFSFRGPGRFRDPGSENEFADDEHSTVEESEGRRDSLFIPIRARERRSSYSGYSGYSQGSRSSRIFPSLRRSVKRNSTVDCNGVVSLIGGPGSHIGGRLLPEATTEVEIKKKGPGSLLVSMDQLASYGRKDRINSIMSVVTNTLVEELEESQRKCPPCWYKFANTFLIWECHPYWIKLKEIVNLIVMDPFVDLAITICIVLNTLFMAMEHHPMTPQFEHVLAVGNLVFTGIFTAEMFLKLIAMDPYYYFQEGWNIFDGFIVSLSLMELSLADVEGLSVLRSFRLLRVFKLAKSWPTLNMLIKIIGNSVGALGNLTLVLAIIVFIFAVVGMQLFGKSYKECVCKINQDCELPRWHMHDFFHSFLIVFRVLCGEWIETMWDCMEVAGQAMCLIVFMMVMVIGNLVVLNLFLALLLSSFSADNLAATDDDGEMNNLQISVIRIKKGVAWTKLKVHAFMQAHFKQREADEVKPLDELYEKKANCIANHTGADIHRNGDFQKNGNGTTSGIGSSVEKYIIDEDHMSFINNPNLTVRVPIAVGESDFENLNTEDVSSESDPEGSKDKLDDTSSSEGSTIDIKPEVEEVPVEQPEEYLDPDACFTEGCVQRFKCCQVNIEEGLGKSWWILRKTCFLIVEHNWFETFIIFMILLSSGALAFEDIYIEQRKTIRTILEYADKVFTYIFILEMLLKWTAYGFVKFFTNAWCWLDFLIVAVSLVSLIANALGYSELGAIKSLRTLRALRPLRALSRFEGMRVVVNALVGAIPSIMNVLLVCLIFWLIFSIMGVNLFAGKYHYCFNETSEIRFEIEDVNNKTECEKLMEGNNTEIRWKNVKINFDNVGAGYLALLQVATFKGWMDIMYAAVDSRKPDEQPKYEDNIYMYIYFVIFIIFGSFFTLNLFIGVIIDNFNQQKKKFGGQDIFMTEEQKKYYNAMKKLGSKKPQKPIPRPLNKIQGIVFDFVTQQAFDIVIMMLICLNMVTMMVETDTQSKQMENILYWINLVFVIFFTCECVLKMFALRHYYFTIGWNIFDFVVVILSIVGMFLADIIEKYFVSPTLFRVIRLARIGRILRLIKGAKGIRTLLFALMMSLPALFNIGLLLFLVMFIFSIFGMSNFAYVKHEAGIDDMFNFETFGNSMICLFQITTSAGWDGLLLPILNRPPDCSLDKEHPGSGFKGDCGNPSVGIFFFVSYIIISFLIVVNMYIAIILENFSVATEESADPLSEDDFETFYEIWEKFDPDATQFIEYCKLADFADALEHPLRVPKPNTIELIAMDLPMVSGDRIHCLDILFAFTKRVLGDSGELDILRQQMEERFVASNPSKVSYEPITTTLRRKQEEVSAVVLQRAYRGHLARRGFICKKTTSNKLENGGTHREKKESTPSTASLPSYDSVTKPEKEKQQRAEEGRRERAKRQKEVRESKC
EXPERIMENTAL_READOUT: inhibition at 1 µM

>>> result("Cc1nc(Cn2c(=O)oc3ccc(-c4ccc(OC(F)(F)F)cc4)nc32)co1 [Compound 159]")
"> 70%"
>>> result("O=c1oc2ccc(-c3ccc(OC(F)(F)F)cc3)nc2n1C[C@@H]1CCCO1 (single isomer, unassigned) [Compound 64]")
"> 70%"
>>> result("O=c1oc2ccc(-c3ccc(OC(F)F)cc3)nc2n1CCc1ncccn1 [Compound 136]")
"< 30%"
>>> result("Cn1cnnc1Cn1c(=O)oc2ccc(-c3ccc(OC(F)(F)F)cc3)nc21 [Compound 163]")
"< 30%"
>>> result("CC(O)CCn1c(=O)oc2ccc(-c3ccc(OC(F)(F)F)cc3)nc21 (centres unmarked) [Compound 89]")
"> 70%"

// sample O=c1oc2ccc(-c3ccc(OC(F)(F)F)cc3)nc2n1Cc1cnccn1 [Compound 143] , its inhibition at 1 µM was > 70%

Consider COCCn1c(=O)oc2ccc(-c3ccc(OC(F)(F)F)cc3)cc21 [Compound 9] . Its measured inhibition at 1 µM is < 30%

Entry under test: COCCCn1c(=O)oc2ccc(-c3ccc(OC(F)(F)F)cc3)cc21 [Compound 15] . Its inhibition at 1 µM was < 30%

###

This listing pairs compounds with measured inhibition at 1 µM.
target: human Nav1.6 (hNav1.6) (Homo sapiens); construct: expressed in transfected cells; host or cells: HEK-293 (G418 selection); assay: Modulation of late sodium current (INaL), PatchXpress electrophysiology; assay type: cell-based; conditions: HEK293; 1 μM compound; HEK-293 cells expressing recombinant human Nav channel; late current evoked by 300 nM ATX-II; steady-state inhibition; read-out: INaL v1.6 (1 μM, % Inhibition)

The following compounds have reported results that may help.
>>> result("C[C@H](Cn1c(=O)oc2ccc(-c3ccc(OC(F)(F)F)cc3)nc21)c1ncccn1 (single isomer, unassigned)")
"> 70%"
>>> result("Cc1noc(Cn2c(=O)oc3ccc(-c4ccc(OC(F)(F)F)cc4)nc32)n1")
"> 70%"
>>> result("O=c1oc2ccc(-c3ccc(OC(F)(F)F)cc3)cc2n1CCc1cncnc1")
"> 70%"
>>> result("O=c1oc2ccc(-c3ccc(OC(F)(F)F)cc3)nc2n1C[C@H]1CCCCO1 (single isomer, unassigned)")
"30 to 70%"
>>> result("O=C(Cn1c(=O)oc2ccc(-c3ccc(OC(F)(F)F)cc3)cc21)N1CCOCC1")
"30 to 70%"

Measured inhibition at 1 µM (human Nav1.6 (hNav1.6) (Homo sapiens)), entry `O=C(Cn1c(=O)oc2ccc(-c3ccc(OC(F)(F)F)cc3)nc21)N1CCCC1` : 30 to 70%

Item: `Cc1cc(Cn2c(=O)oc3ccc(-c4ccc(OC(F)(F)F)cc4)nc32)on1` | System: human Nav1.6 (hNav1.6) (Homo sapiens) | inhibition at 1 µM: > 70%

inhibition at 1 µM for human Nav1.6 (hNav1.6) (Homo sapiens) with input `O=c1oc2ccc(-c3ccc(OC(F)(F)F)cc3)nc2n1CCc1ncccn1` equals 30 to 70%

###

molecular target: human Nav1.6 (hNav1.6) (Homo sapiens); construct: expressed in transfected cells; host or cells: HEK-293 (G418 selection); experiment: Modulation of late sodium current (INaL), PatchXpress electrophysiology; type: cell-based; conditions: HEK293; 1 μM compound; HEK-293 cells expressing recombinant human Nav channel; late current evoked by 300 nM ATX-II; steady-state inhibition; read-out: INaL v1.6 (1 μM, % Inhibition)
EXPERIMENTAL_READOUT: inhibition at 1 µM

>>> result("O=c1[nH]c2nc(-c3ccc(OC(F)(F)F)cc3)ccc2o1 [Compound 29]")
"< 30%"
>>> result("O=c1oc2ncc(-c3ccc(OC(F)(F)F)cc3)cc2n1CC(F)(F)F [Compound 22]")
"< 30%"
>>> result("Cc1cc(OC(F)(F)F)ccc1-c1ccc2oc(=O)n(CCc3ncccn3)c2n1 [Compound 121]")
"30 to 70%"
>>> result("O=c1oc2ccc(-c3cnc(OCC(F)(F)F)c(F)c3)nc2n1CCc1ncccn1 [Compound 122]")
"< 30%"
>>> result("Cc1cc(OC(F)(F)F)ccc1-c1ccc2oc(=O)n(CC(=O)N3CCCC3)c2n1 [Compound 144]")
"< 30%"

Briefly, inhibition at 1 µM measured for O=c1oc2ccc(-c3ccc(OC(F)(F)F)cc3)cc2n1C[C@@H]1CCOC1 (single isomer, unassigned) [Compound 69] : > 70%

Sample O=C(Cn1c(=O)oc2ccc(-c3ccc(OC(F)(F)F)cc3)cc21)N1CC[C@H](O)C1 [Compound 115] ; inhibition at 1 µM observed: < 30%

###

target: human Nav1.6 (hNav1.6) (Homo sapiens, UniProt Q9UQD0); construct: expressed in transfected cells; host or cells: HEK-293 (G418 selection); assay: Modulation of late sodium current (INaL), PatchXpress electrophysiology; type: cell-based; conditions: HEK293; 1 μM compound; HEK-293 cells expressing recombinant human Nav channel; late current evoked by 300 nM ATX-II; steady-state inhibition; read-out: INaL v1.6 (1 μM, % Inhibition)
EXPERIMENTAL_READOUT: inhibition at 1 µM

Known results for molecules:
>>> result("O=c1oc2ccc(-c3ccc(OC(F)(F)F)cc3)nc2n1C[C@@H]1CCOC1 (single isomer, unassigned)")
"> 70%"
>>> result("COCc1cc(OC(F)(F)F)ccc1-c1ccc2oc(=O)n(CC(F)(F)F)c2c1")
"> 70%"
>>> result("Cc1nnc(Cn2c(=O)oc3ccc(-c4ccc(OC(F)(F)F)cc4)cc32)o1")
"30 to 70%"

We next turn to a different molecule, shown below.
inhibition at 1 µM for `O=c1oc2ccc(-c3ccc(OC(F)(F)F)cc3)cc2n1CCC1CC1` is > 70%

###

molecular target: human Nav1.6 (hNav1.6) (Homo sapiens, UniProt Q9UQD0); construct: expressed in transfected cells; host or cells: HEK-293 (G418 selection); assay: Modulation of late sodium current (INaL), PatchXpress electrophysiology; format: cell-based; conditions: HEK293; 1 μM compound; HEK-293 cells expressing recombinant human Nav channel; late current evoked by 300 nM ATX-II; steady-state inhibition; read-out: INaL v1.6 (1 μM, % Inhibition)
EXPERIMENTAL_READOUT: inhibition at 1 µM

>>> result("Cn1cnc(Cn2c(=O)oc3ccc(-c4ccc(OC(F)(F)F)cc4)nc32)n1 [Compound 157]")
"30 to 70%"

// inhibition at 1 µM value for CO[C@H]1CCN(C(=O)Cn2c(=O)oc3ccc(-c4ccc(OC(F)(F)F)cc4)cc32)C1 [Compound 125] : < 30%

Lab note: measured inhibition at 1 µM of O=c1oc2ccc(-c3ccc(OCC(F)(F)F)nc3)cc2n1CC(F)(F)F [Compound 6] was 30 to 70%

Lab book: inhibition at 1 µM of C[C@H](O)CCn1c(=O)oc2ccc(-c3ccc(OC(F)(F)F)cc3)cc21 [Compound 98] noted as 30 to 70%

###

Quick list: inhibition at 1 µM per entry.
target: human Nav1.6 (hNav1.6) (Homo sapiens); construct: expressed in transfected cells; host or cells: HEK-293 (G418 selection); test: Modulation of late sodium current (INaL), PatchXpress electrophysiology; format: cell-based; settings: HEK293; 1 μM compound; HEK-293 cells expressing recombinant human Nav channel; late current evoked by 300 nM ATX-II; steady-state inhibition; read-out: INaL v1.6 (1 μM, % Inhibition)

Solved entries (count: 2):
>>> result("NC(=O)Cn1c(=O)oc2ccc(-c3ccc(OC(F)(F)F)cc3)cc21 [Compound 42]")
"< 30%"
>>> result("O=c1oc2ccc(-c3ccc(OC(F)(F)F)cc3)nc2n1CCc1ccncn1 [Compound 146]")
"> 70%"

Noted inhibition at 1 µM for O=c1oc2ccc(-c3ccc(OC(F)(F)F)cc3)cc2n1CC1CCCCO1 (centres unmarked) [Compound 57] , tested on human Nav1.6 (hNav1.6) (Homo sapiens): > 70%

Value (inhibition at 1 µM, human Nav1.6 (hNav1.6) (Homo sapiens)) for record O=c1oc2ccc(-c3ccc(OC(F)(F)F)cc3)cc2n1CC1CCCOC1 (centres unmarked) [Compound 72] = > 70%

Item Cc1nnc(CCN2C(=O)Cc3ccc(-c4ccc(OC(F)(F)F)cc4)cc32)o1 [Compound 21] ; assay system human Nav1.6 (hNav1.6) (Homo sapiens); inhibition at 1 µM reported as 30 to 70%
